Biological target: SHP-1 (Rattus norvegicus)
Construct: endogenous in cells; host or cells: RBL-2H3
Sequence (P81718 whole entry): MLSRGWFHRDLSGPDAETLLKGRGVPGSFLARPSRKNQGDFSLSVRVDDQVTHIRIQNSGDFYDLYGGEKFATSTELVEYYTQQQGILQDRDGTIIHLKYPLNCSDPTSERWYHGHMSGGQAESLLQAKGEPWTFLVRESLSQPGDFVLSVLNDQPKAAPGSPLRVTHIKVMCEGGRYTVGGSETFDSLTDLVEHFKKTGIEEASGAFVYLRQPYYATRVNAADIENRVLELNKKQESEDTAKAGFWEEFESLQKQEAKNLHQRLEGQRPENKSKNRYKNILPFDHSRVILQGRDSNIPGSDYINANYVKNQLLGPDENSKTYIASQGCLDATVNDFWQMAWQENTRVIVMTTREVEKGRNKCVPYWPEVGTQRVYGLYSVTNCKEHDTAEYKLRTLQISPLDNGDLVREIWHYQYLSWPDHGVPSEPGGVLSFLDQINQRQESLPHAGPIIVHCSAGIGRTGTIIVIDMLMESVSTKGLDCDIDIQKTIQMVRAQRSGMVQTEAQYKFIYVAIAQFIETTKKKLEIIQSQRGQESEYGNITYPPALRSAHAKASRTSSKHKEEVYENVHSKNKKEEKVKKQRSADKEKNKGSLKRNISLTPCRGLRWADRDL
Test: Cell lysate adsorption to peptides, anti-SHP-1 immunoblot
Type: binding
Details: RBL-2H3 lysates, peptide on streptavidin beads
assay-readout: binding of SHP-1 from cell lysates

Value of binding of SHP-1 from cell lysates reported for the substance KTEAENTATY262SLLK (KTEAENTATYSLLK) [FcγRIIB 1-I260A, point mutant of FcγRIIB ITIM peptide] is abolishes the binding

Value of binding of SHP-1 from cell lysates reported for the substance DEQDPQEATY303AQLN (DEQDPQEATYAQLN) [p58.2.1-V301A, point mutant of KIR N-terminal ITIM peptide] is abolishes the binding
